A compilation of pIC50 values for Dihydroorotate dehydrogenase (quinone), mitochondrial (Homo sapiens) from the published literature.
pIC50: −log10 of the molar value.

{"Compound": "Cc1ccc(Nc2scc(O)c2C(=O)O)cc1C", "Qualifier sign": "<", "pIC50": 4.30}
{"Compound": "CCCNC(=O)c1ccc(-n2c(C)cc3ccccc32)s1", "Qualifier sign": "<", "pIC50": 4.52}
{"Compound": "Cc1ccccc1-c1cc(C(C)C)c2cc(-c3cn(C)c(C(C)(C)O)n3)c(F)cn2c1=O", "Qualifier sign": "=", "pIC50": 8.68}
{"Compound": "CCC(=O)C(C#N)C(=O)Nc1ccc(-c2cccc(OC3CCC3)c2)c(C(=O)OC)c1 (stereo not given)", "Qualifier sign": "=", "pIC50": 7.51}
{"Compound": "Cc1ccnc(Cl)c1-c1cc(C(C)C)c2cc(-c3cn(C)c(C(C)(C)O)n3)c(F)cn2c1=O", "Qualifier sign": "=", "pIC50": 7.89}

---

Target or system Dihydroorotate dehydrogenase (quinone), mitochondrial (Homo sapiens); metric IC50; compiled from varied reports.
Measured property: IC50 (nM)

{"Smiles structure": "Nc1nc2cc3ccccc3c-2c(Nc2cccc(Br)c2)[nH]1", "Qualifier sign": ">", "Result value": 200000}
{"Smiles structure": "Nc1nc2cc3ccccc3c-2c(Nc2ccccc2)[nH]1", "Qualifier sign": ">", "Result value": 200000}
{"Smiles structure": "Cc1ccccc1-n1cc(C(C)C)c2cc(-c3cnc(C4CC4)cn3)c(F)cc2c1=O", "Qualifier sign": "=", "Result value": 2.6}
{"Smiles structure": "Cc1ccccc1-n1cc(C(C)C)c2cc(-c3ccc(C)c(N)n3)c(F)cc2c1=O", "Qualifier sign": "=", "Result value": 0.18}
{"Smiles structure": "CC(C)[C@@H]1NC(=O)[C@@H]2CCCN2C1=O", "Qualifier sign": ">", "Result value": 50000}

---

pIC50: −log10 of the molar value.
For reference, the following pIC50 results for Dihydroorotate dehydrogenase (quinone), mitochondrial (Homo sapiens) were taken from various sources.

{"Compound": "CCC(=O)C(C#N)C(=O)Nc1ccc(-c2ccc(F)cc2F)c(C(=O)OC)c1 (stereo not given)", "Qualifier sign": "=", "pIC50": 7.51}
{"Compound": "Cc1ccccc1-n1cc(C(C)C)c2cc(-c3cn(C)c(CO)n3)c(F)cc2c1=O", "Qualifier sign": "=", "pIC50": 8.92}
{"Compound": "CCC(=O)C(C#N)C(=O)Nc1ccc(-c2ccc(F)nc2)c(C(=O)OC)c1 (stereo not given)", "Qualifier sign": "=", "pIC50": 6.82}
{"Compound": "CC(C)C[C@@H]1NC(=O)[C@@H]2CCCN2C1=O", "Qualifier sign": "<", "pIC50": 4.30}
{"Compound": "CCOC(=O)c1c(O)csc1Nc1cccc(C(F)(F)F)c1", "Qualifier sign": "<", "pIC50": 4.30}
{"Compound": "COc1cc(-n2cc(C(C)C)c3cc(-c4nc(C(C)(C)O)n(C)n4)c(F)cc3c2=O)c(C)cn1", "Qualifier sign": "=", "pIC50": 8.92}
{"Compound": "Cc1ccnc(Cl)c1-n1cc(C(C)C)c2cc(-c3cn(C)c(C(C)(C)O)n3)c(F)cc2c1=O", "Qualifier sign": "=", "pIC50": 8.70}
{"Compound": "Cc1ccccc1-n1nc(C(C)C)c2cc(-c3cn(C)c([C@@H](C)O)n3)c(F)cc2c1=O", "Qualifier sign": "=", "pIC50": 8.59}
{"Compound": "CCC(=O)C(C#N)C(=O)Nc1ccc(-c2cccc(Cl)c2)c(C(=O)OC)c1 (stereo not given)", "Qualifier sign": "=", "pIC50": 7.51}
{"Compound": "CCC(=O)C(C#N)C(=O)Nc1ccc(-c2ccc(F)cc2OC)c(C(=O)OC)c1 (stereo not given)", "Qualifier sign": "=", "pIC50": 7.18}
{"Compound": "Cc1cnc(-c2cc3c(C(C)C)cn(-c4ccccc4C)c(=O)c3cc2F)cc1N", "Qualifier sign": "=", "pIC50": 8.44}
{"Compound": "O=C1N[C@@H](Cc2ccccc2)C(=O)N2C[C@H](O)C[C@@H]12", "Qualifier sign": "=", "pIC50": 6.11}
{"Compound": "CC[C@H](C)[C@@H]1NC(=O)[C@@H]2CCCN2C1=O", "Qualifier sign": "<", "pIC50": 4.30}
{"Compound": "Nc1nc2cc3ccccc3c-2c(Nc2ccc(Cl)cc2)[nH]1", "Qualifier sign": "<", "pIC50": 3.70}
{"Compound": "Cc1cn(-c2cc(O[C@@H](C)C(F)(F)F)c(C(=O)Nc3c(F)cccc3Cl)cc2F)nc1[C@H](C)O (relative stereo)", "Qualifier sign": "=", "pIC50": 9.52}

---

Collected pIC50 for UniProt Q02127 across several studies; molecules listed below.
pIC50: −log10 of the molar value.
Quick rule for you: pIC50 at 9 or higher means label 1, lower means label 0.

{"Molecule": "CCn1nc(-c2cc3c(C(C)C)cn(-c4ccccc4C)c(=O)c3cc2F)nc1C(C)O (centres undefined)", "Classification": "label 0"}
{"Molecule": "Cc1n[nH]c(C(F)(F)F)c1-c1cc(C(C)C)c2cc(-c3cn(C)c(C(C)(C)O)n3)c(F)cn2c1=O", "Classification": "label 0"}
{"Molecule": "Cc1n[nH]c(Cl)c1-c1cc(C(C)C)c2cc(-c3cn(C)c(C(C)(C)O)n3)c(F)cn2c1=O", "Classification": "label 0"}
{"Molecule": "CCn1nc(-c2cc3c(C(C)C)cn(-c4ccccc4C)c(=O)c3cc2F)nc1C(C)=O", "Classification": "label 0"}
{"Molecule": "Cc1cn(-c2cc(O[C@@H](C)C(F)(F)F)c(C(=O)Nc3c(C)n[nH]c3Cl)cc2F)nc1[C@@H](C)O (relative stereo)", "Classification": "label 1"}
{"Molecule": "Cc1cn(-c2cc(O[C@@H](C)C(F)(F)F)c(C(=O)Nc3c(C)n[nH]c3Cl)cc2F)nc1[C@H](C)O (relative stereo)", "Classification": "label 1"}
{"Molecule": "Cc1nnc2c3ccccc3c(N3CCc4ccccc4C3)nn12", "Classification": "label 0"}
{"Molecule": "Cc1ccnc(Cl)c1-n1cc(C(C)C)c2cc(-c3nc(C(C)(C)O)n(C)n3)c(F)cc2c1=O", "Classification": "label 0"}
{"Molecule": "CCn1nc(-c2cc3c(C(C)C)cn(-c4ccccc4C)c(=O)c3cc2F)nc1C(C)(C)O", "Classification": "label 0"}
{"Molecule": "Cc1cn(-c2cc(O[C@@H](C)C(F)(F)F)c(C(=O)Nc3c(C)n[nH]c3Cl)cc2F)nc1C(C)(C)O", "Classification": "label 1"}
{"Molecule": "Cc1n[nH]c(C(F)(F)F)c1-c1cc(C(C)C)c2cc(-c3nc(C(C)(C)O)n(C)n3)c(F)cn2c1=O", "Classification": "label 0"}
{"Molecule": "COc1cccc(Nc2[nH]c(N)nc3cc4ccccc4c2-3)c1", "Classification": "label 0"}
